Each record here notes measured IC50.
System: 134 cancer cell lines
Test: Cell viability assay (ATPlite, 72 hours), IC50 on cancer cell line panel
Settings: Homo sapiens, UMUC3, read-out: IC50 in cell proliferation assay
REPORTED_ENDPOINT: IC50 (µM)

MOLECULE	DISPLAY_UNIT	QUANTITATIVE_READOUT
C=CC(=O)N1CCC([C@@H]2CCNc3c(C(N)=O)c(-c4ccc(Oc5ccccc5)cc4)nn32)CC1	µM	24.1
CCc1cc2c(cc1N1CCC(N3CCOCC3)CC1)C(C)(C)c1[nH]c3cc(C#N)ccc3c1C2=O	µM	3.3
Cn1cc(-c2cc3c(N4CCN(c5ncc([C@@](C)(N)c6ccc(F)cc6)cn5)CC4)ncnn3c2)cn1	µM	5.49
CCn1c(=O)c(-c2cc(NC(=O)Nc3ccccc3)c(F)cc2Br)cc2cnc(NC)cc21	µM	2.89
C[C@@H](Oc1cc(-c2cnn(C3CCNCC3)c2)cnc1N)c1c(Cl)ccc(F)c1Cl	µM	2.77
